Source of measurements: patent US20260258115A1

# Tested target: RSV postfusion F (postF), F ΔFP (Respiratory syncytial virus, UniProt P03420 26-513)
# Assay info: BLI, IgG on anti-human IgG sensor, 100 nM antigen
The following binders are listed with their measured pKd values.
The scale used: pKd is minus the common logarithm of the concentration in molar units.

Binder	pKd
ADI-41592 (antibody, V domains shown, also called Ab 866; Antibody Number 866) VH: EVQLVESGSELKKPGASVKVSCKASGYTFRTYVMNWVRQAPGQGLEWMGWINTNTGNPTYAQGFTGRFVFSLDTSVSTAYLQISSLKAEDTAVYYCARESIDDYDSSGYGRTFDYWGQGTLVTVSS VL: SYELTQPPSVSVSPGQTASIPCSGDKVGKTYVYWYQQTPGQSPGLVIYQDTKRPSGIPERFSGSSSGNTATLTISGTQTMDEADYYCQAWDTSTASYVFGTGTKLTVL	9.36
ADI-41660 (antibody, V domains shown) VH: EVQLVQSGAEVKKPGSSVKVSCKASGGTFSRNAISWVRQAPGQGLEWMGGIIPIFGAANYPQKFQGRVTITADKSTSTAYMELSSLRSEDTALYYCARTMGEMTTTPVSIYYYGMDVWGQGTTVTVSS VL: QSVLTQPPSVSAAPGQKVTISCSGSSSNIGINYVSWYQQLPGTAPKLLIYDNNKRPSGIPDRFSGSKSGTSATLGITGLQTGDEADYYCGTWDSSLSAGYVFGSGTKLTVL	9.02

QUERY: Please give the documented pKd of ADI-41555 (antibody, V domains shown) VH: EVQLVESGPGLVKPSQTLSLTCSVSGGSISSGIHYWSWIRQHPGKGLEWIGYIYYSGSTYYNPSLESRITISVDTSKNQFSLKVSSVTAADTAVYYCARVNRASRMTTFGVANERSIYYFMDVWGKGTTVTVSS VL: ETTLTQSPATLSLSPGERATLSCRATQSVGNYLAWYQQKPGQAPRLLIHDASNRATGIPARFSGSGSGTDFTLTISSLEPEDFAVYYCQLRINWLFTFGPGTKVEIK
RESULT: 8.95
